Assay: Pharmacokinetics of noribogaine in healthy volunteers, ascending single oral dose (plasma noribogaine and noribogaine glucuronide)
Settings: male, human, plasma, oral
property: half-life

QUERY: half-life for CCC1CC2CC3c4[nH]c5ccc(O)cc5c4CCN(C2)C13 (stereo not shown) [Noribogaine] ?
RESULT: 28 to 50 h

----------
Experiment: Pharmacokinetics of noribogaine in healthy volunteers, ascending single oral dose (plasma noribogaine and noribogaine glucuronide)
Conditions: male, human, plasma, po, 10 mg
property: AUC(0-t)
The answer should read as a number with its unit following.

QUERY: AUC(0-t) for CCC1CC2CC3c4[nH]c5ccc(O)cc5c4CCN(C2)C13 (stereo not shown) ?
RESULT: 251 ng·h/mL
